Entry source: paper PMC8831599

- Assayed System: T1, His-DDB1–CRBN complex (human, UniProt Q96SW2 41-442; Q16531 1-1140)
- T1 construct: human cereblon (CRBN) lacking residues 1-40; human DDB1; Held on AlphaScreen acceptor beads by the His-tag; source: Hi5 insect cells, co-expressed, purified (Ni-NTA); not shown: His-Msb-tag, N-terminal, kept
- Method Description: AlphaScreen or HTRF; competition without pomalidomide: 0.9 nM His-DDB1–CRBN on acceptor beads, 8.3 nM biotinylated IKZF1 ZF2-3 on donor beads, label-free IKZF1 ZF2-3 titrated
- Condition Info: both partners purified
pIC50: −log10 of the molar value.
Quantity: pIC50

[[record]]
binder = "Label-free IKZF1 ZF2-3 (141-196) (domain or fragment, human, UniProt Q13422 141-196, looked up, human IKZF1 (Ikaros), zinc fingers 2-3, residues 141-196; also called Avi-IKZF1^ZF2-3; not shown: GST, N-terminal, cleaved) GERPFQCNQCGASFTQKGNLLRHIKLHSGEKPFKCHLCNYACRRRDALTGHLRTHS"
test_result = "6.52 to 6.70"

